Test system: SF-539
METHOD: NCI-60 single dose screen, sulforhodamine B
Format: cell-based, human
TEST_CONTEXT: CNS cancer SF-539; single dose 10^−5 M
Description: In this research, all of the newly synthesised quinazolinones were subjected to in vitro anticancer screening by the National Cancer Institute (USA) against 60 different human cell lines including leukaemia, non-small cell lung cancer, colon cancer, CNS cancer, melanoma, ovarian cancer, renal cancer, prostate cancer, and breast cancer. The tested compounds were evaluated at a single dose (10^−5 M). […]
MEASURED_PROPERTY: GI% at 10^−5 M

O=C(CN1CCN(c2ccccc2)CC1)Nn1c(COc2ccccc2)nc2ccccc2c1=O – (– means GI < 10%)
COc1ccc(N2CCN(CC(=O)Nn3c(COc4ccccc4)nc4ccccc4c3=O)CC2)cc1 – (– means GI < 10%)
O=c1c2ccccc2nc(COc2ccccc2)n1NS(=O)(=O)c1ccc(Cl)cc1 13.14%
O=c1c2ccccc2nc(COc2ccccc2)n1NS(=O)(=O)c1ccccc1 – (– means GI < 10%)
